Recorded values, source PubChem BioAssay (NCI).

Attribute: GI50
Tested on: OVCAR-5 ovarian
experiment_notes: NCI tumour cell line growth inhibition, 48 h

Some compounds with recorded GI50:
O=C(O)c1cc2cc(OCc3ccccc3)c(OCc3ccccc3)cc2[nH]1 ... 29.1 µM
COc1ccc(-c2ccc(-c3ccc(-c4ccc(C(=N)N)cc4)s3)s2)cc1OC ... 1.44 µM
Cc1c2c[n+](C(C)C)ccc2c(C)c2c1[nH]c1ccccc12 ... 5.95 µM

Consider the record given below.
**Query** Please give the documented GI50 of C=C1C(=O)O[C@H]2[C@H]1CC/C(COC(=O)NCCc1c[nH]c3ccc(OC)cc13)=C\CC[C@@]1(C)O[C@@H]21
**Result** 1.82 µM

* * *

Test system: NCI/ADR-RES ovarian
experiment_notes: NCI tumour cell line growth inhibition, 48 h
observation_type: TGI

COc1ccccc1C#Cc1ccccc1C#CCCCCCC#Cc1ccccc1C#Cc1ccccc1OC ... > 100 µM
COc1ccc(N=N/C(=N/NC(=O)c2ccccc2)c2ccc(N(CCC#N)CCC#N)cc2C)cc1 ... > 100 µM
Cc1ccc2c(c1)NC(=O)CC(c1ccccc1)=N2 ... > 100 µM

**Query** Please give the documented TGI of Cc1sc(/N=C/c2c[nH]c3ccccc23)c(C#N)c1C
**Result** > 100 µM

* * *

Attribute: GI50
Tested on: NCI-H226 lung
experiment_notes: NCI tumour cell line growth inhibition, 48 h

Some compounds with recorded GI50:
O=C(N/N=C/c1ccc([N+](=O)[O-])cc1)c1ccc2nc(-c3ccc(Cl)cc3)[nH]c2c1 ... 5.03 µM
COc1cc(/C=C2\CN(C)C/C(=C\c3cc(CN4CCCCC4)c(O)c(OC)c3)C2=O)cc(CN2CCCCC2)c1O ... 10.5 µM
Cc1cc(C)c(O)c(CN(C)Cc2cc(Cl)cc(Cl)c2O)c1 ... 6.56 µM
O=C(O)c1cc2cc(OCc3ccccc3)c(OCc3ccccc3)cc2[nH]1 ... 17.1 µM

**Query** Please give the documented GI50 of NC1=NC(c2ccc(Cl)cc2)C2=C(N1)/C(=C/c1ccc(Cl)cc1)CCC2 (stereo not given)
**Result** 4.25 µM

* * *

System: CCRF-CEM leukemia
experiment_notes: NCI tumour cell line growth inhibition, 48 h
Attribute: TGI
Answer format: numeric, µM implied, no suffix.

Some compounds with recorded TGI:
CCOC(=O)/C=C(/C(=O)OCC)n1cc(C)c(=O)n(Cc2cn(COCCOC(C)=O)nn2)c1=O ... 5.33
CCOC(=O)/C=C(\C(=O)OCC)n1ccc(N)nc1=O ... 60.5
COc1ccc(/C=C/C(=O)Oc2cc(O)cc(O)c2)cc1 ... 37.3
CO[C@@H]1/C=C(C)/C=C/[C@@H](C)/C=C(\C)C(=O)OC(/C(C)=C/C=C(\C)CNC(=O)[C@H](CO)NC=O)[C@@H](C)/C=C/C=C/[C@H](OC)CC/C=C(C)/C=C/C1 (some centres undefined) ... 16.5

Consider the record given below.
**Query** Please give the documented TGI of CC(C)(C)C(=O)ON1N=NC2C3CC(OCc4ccccc4)(OCc4ccccc4)C(O3)C21 (centres undefined)
**Result** 45.8

* * *

Attribute: GI50
Tested on: ACHN renal
experiment_notes: NCI tumour cell line growth inhibition, 48 h

Cc1cc(Cc2cc(C)cc(C(C)(C)C)c2O)c(O)c(C(C)(C)C)c1 ... 4.59 µM
Cn1cc(-c2cnc3ccc4ccc(CS(=O)(=O)NCc5ccccn5)cc4c(=O)c3c2)cn1 ... 16.4 µM
O=C(Nc1ccc(Cl)cc1)c1cc(-c2ccc(Cl)cc2)c2sc(=O)[nH]c2n1 ... 2.27 µM

**Query** Please give the documented GI50 of O=c1[nH]cnc2[nH]ncc12
**Result** 193 µM

**Query** Please give the documented GI50 of N#CC1=C(N)NC(=O)NC12Nc1ccccc1S2 (stereo unspecified)
**Result** 32.2 µM

**Query** Please give the documented GI50 of C=CC(=O)N[C@H]1CCOC[C@H]1Nc1ncc2cc(-c3c(Cl)c(OC)cc(OC)c3Cl)ccc2n1
**Result** 15.8 µM

**Query** Please give the documented GI50 of Cc1ccc2c(O)c(O)cc(NC(C)CCCN)c2n1 (stereo unspecified)
**Result** > 100 µM
